B1: MIA2 (parent)
chain: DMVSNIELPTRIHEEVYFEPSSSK

- Variants of: B1
- Experimental protocol: protein stability index of a GFP-peptide fusion (GPS, HEK-293T) (PSI 1-6); higher = more stable;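 also: lentivirally expressed fusions sorted by FACS into six bins by GFP to DsRed ratio, PSI derived from sequencing read proportions per bin multiplied by bin number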
- Condition description: c terminus: a fixed tail appended
Collected protein stability index values appear next to each entry.
Please reply with the value in numeric form only.

>>> measurement("P9C")
3.53

Item: `E14C` | protein stability index: 1.91

Given item `V16A` , the value recorded as its protein stability index is 4.26

Per the records, this variant ( `S4M` ) has protein stability index equal to 3.51

The reported value for `E15Y` in terms of protein stability index is 3.22

Record `T10A` , field protein stability index: 4.23

Data point: `S23C` ; protein stability index = 4

Given item `H13F` , the value recorded as its protein stability index is 3.81

Measured protein stability index of `S23R` : 3.56

Kindly note the recorded protein stability index for `N5W` , which is 4.38

Recorded protein stability index (variant `E7I` ): 2.88

The reported measurements were obtained from the supplement of paper PMC10567573.
